Test system: SK-MEL-5 melanoma
METHOD SUMMARY: NCI tumour cell line growth inhibition, 48 h
TGI values, listed per item

Cc1c(C)c([N+](=O)[O-])c2c(c1N)C(=O)c1ccccc1C2=O	> 100 µM
C[n+]1cccc2ccc3cccnc3c21	42 µM
O=C(Nc1ccc(Cl)cc1C(F)(F)F)C(=O)Nn1c(=S)[nH]c2ccccc2c1=O	> 100 µM
Cc1cccc(C)c1NC(=O)C(=O)Cc1nc2ccccc2s1	> 100 µM
COC(=O)C(C(=O)C(=O)Nc1c(C)cccc1C(C)(C)C)c1nc2ccc(Cl)cc2[nH]c1=O (configuration not stated)	> 100 µM

Would you kindly look at the next entry?
Prompt: # input molecule: CCc1nc(N)c2nc(-c3cccs3)oc2n1 ; wanted: its TGI
Response: > 100 µM

----------
Tested on: KM20L2 colon
METHOD SUMMARY: NCI tumour cell line growth inhibition, 48 h
TGI values, listed per item

Consider the worked cases shown below.
O=C(c1ccccc1)C1N=NN(Cc2ccccc2[N+](=O)[O-])C1C(=O)c1ccccc1 (configuration not stated)	> 100 µM
CCOc1ccc2nc(NC(=O)C(=O)C(C(=O)c3ccccc3F)C3OC(=O)c4ccccc43)sc2c1 (configuration not stated)	71 µM
O=c1c(Cc2ccccc2)c(O)cc2n1CCC2	> 100 µM

Prompt: Enter reported TGI observed with KM20L2 colon for N#Cc1ccccc1NC(=O)C(=O)C(C(=O)c1ccccc1F)C1OC(=O)c2ccccc21 (configuration not stated)
Response: > 100 µM

Prompt: Next up: COC(=O)C1CC(c2ccc(OC)c(OC)c2)OC1=O (mixture of isomers)
Response: > 100 µM

Prompt: Next up: CC(C)(C)C#COC(=O)c1ccccc1
Response: > 100 µM

Prompt: Next up: Cc1cc(=O)[nH]c(NNC(C#N)c2cccc([N+](=O)[O-])c2)n1 (configuration not stated)
Response: > 100 µM

Prompt: Next up: C=CCC(O[Si](C)(C)C(C)(C)C)c1cc(O[Si](C)(C)C(C)(C)C)ccc1OC (configuration not stated)
Response: > 100 µM

Prompt: Next up: Cc1cc(Cl)ccc1NC(=O)CCCC(=O)C1C/C(=N/O)CC/C1=N\O (configuration not stated)
Response: > 100 µM

Prompt: Next up: COc1ccc(-c2ccc(CC(=O)O)cc2)cc1OC
Response: > 100 µM

Prompt: Next up: CC(C)CCCC(C)[C@H]1CCC(C2C[C@@H](O)[C@@H]3CC(O)[C@@H](O)C[C@]3(CO)C2=O)[C@]1(C)CCO (some centres not stated)
Response: 38.5 µM

Prompt: Next up: c1ccc2c(c1)[nH]c1c2nc2ccccn21
Response: > 100 µM

----------
TGI values, listed per item
System: OVCAR-4 ovarian
METHOD SUMMARY: NCI tumour cell line growth inhibition, 48 h

Consider the worked cases shown below.
CCC1(c2ccc(N3C(=O)c4cccc5cc([N+](=O)[O-])cc(c45)C3=O)cc2)CCC(=O)NC1=O (configuration not stated)	42.4 µM
NCCO/C=C/C(N)C(=O)O (configuration not stated)	> 100 µM
O=C1NC(=NCCc2ccc(Cl)cc2)S/C1=C\c1ccc2ncccc2c1	> 25 µM
C[C@H]1S[C@@H](c2ccc(Cl)cc2Cl)N(NC(=O)c2ccncc2)C1=O	> 100 µM

Prompt: # input compound: Cc1cccc(C2NC(=O)c3ccccc3N2)c1 (configuration not stated) ; wanted: its TGI
Response: > 100 µM

Prompt: Next up: COc1cccc2c1C(=O)c1c(O)c3c(c(O)c1C2=O)C[C@@](O)(C(C)=O)CC3OC1CC(OC2CC(N)C(O)C(C)O2)C(O)C(C)O1 (some centres not stated)
Response: > 100 µM

Prompt: Next up: CC(C)CCCC(C)[C@H]1CCC(C2C[C@@H](O)[C@@H]3CC(O)[C@@H](O)C[C@]3(CO)C2=O)[C@]1(C)CCO (some centres not stated)
Response: > 83.8 µM

Prompt: Next up: C[n+]1cccc2ccc3cccnc3c21
Response: > 100 µM

Prompt: Next up: CCOC(=O)c1cc(-c2ccc(OC)cc2)c([N+](=O)[O-])[nH]1
Response: > 10 µM

Prompt: Next up: N#C/C(=C\c1ccc2[nH]ccc2c1)C(=O)NCCCCNC(=O)/C(C#N)=C/c1ccc2[nH]ccc2c1
Response: > 31.6 µM

Prompt: Next up: Nc1[nH]c(=O)nc2c1ncn2C1OC(CO)C(O)C1O (configuration not stated)
Response: > 100 µM

Prompt: Next up: CC(=O)NC1C(OCc2ccccc2)OC(CO)C(O)C1OC(C)C(=O)N[C@@H](C)C(=O)N[C@H](CCC(=O)NCCNCCNc1c2ccccc2nc2cccc([N+](=O)[O-])c12)C(N)=O (some centres not stated)
Response: 0.0817 µM

Prompt: Next up: COC1/C=C/C(C)C(O)CC(O)/C=C/C(C)C(C(C)C(OC)C(C)CCC(=O)C(C)C(C/C=C/N(C)C=O)OC)OC(=O)/C=C/C=C(\C)CC(OC)CC2=CC(=O)O[C@@H](C(C)C(OC)C1)[C@H]2O (some centres not stated)
Response: 1.54 µM

Prompt: Next up: Cc1ccccc1NC(=O)O/N=C(\Cl)C(C)C
Response: 23.2 µM

Prompt: Next up: COc1ccc(-n2c(=S)sc3c(Cl)nc(C)nc32)c(OC)c1
Response: 15.6 µM

Prompt: Next up: CCOc1c(Br)cc(Br)cc1C=C(C#N)C#N
Response: > 10 µM

Prompt: Next up: O=C(O)CSC(CC(=O)c1ccc(Cl)cc1)c1ccc(Cl)cc1 (configuration not stated)
Response: > 100 µM

----------
System: HCT-15 colon
METHOD SUMMARY: NCI tumour cell line growth inhibition, 48 h
TGI values, listed per item

Consider the worked cases shown below.
CC(Nc1ccc(Cl)cc1)c1ccncc1 (stereo unspecified)	> 100 µM
CC(=O)N1[C@H](C(=O)O)CS[C@H]1c1ccc(F)cc1	> 100 µM
Cc1ccc(/C(=N/Nc2ccc([N+](=O)[O-])cc2)Sc2cc(Cl)c(C)cc2S(N)(=O)=O)cc1	> 49.6 µM
Cc1n[nH]c2ccccc2c1=O	> 100 µM
CCCCNC(c1ccc(Cl)cc1)C(O)c1ccc(Cl)cc1 (stereo unspecified)	5.7 µM

Would you kindly look at the next entry?
Prompt: # input molecule: N/N=C(/Cc1ccccc1)NNO ; wanted: its TGI
Response: > 100 µM

----------
Tested on: NCI-H23 lung
METHOD SUMMARY: NCI tumour cell line growth inhibition, 48 h
TGI values, listed per item

Cn1c(COC(=O)NCCc2ccccn2)nc2c(N3CCOCC3)nc(Cl)nc21	4.7 µM
CCCCCCCC/C=C/CCCCCCCC1=NC(C)(C)CN1C(C)(C)CO	3.46 µM
COc1cc(/C=N/NC(=O)c2cnn3c2NC(c2ccccc2)C3)ccc1OC1CCCC1 (stereo not given)	8.85 µM
Oc1ccc(Cl)cc1C=Nc1cnc2ccccc2c1	> 100 µM

Would you kindly look at the next entry?
Prompt: # input compound: CC1=C(CO)C(=O)OC(C(C)C2CCC3C4CC5OC56C(O)C(N5CC5)=CC(=O)C6(C)C4CCC23C)C1 (stereo not given) ; wanted: its TGI
Response: 7 µM

----------
Tested on: K-562 leukemia
METHOD SUMMARY: NCI tumour cell line growth inhibition, 48 h
TGI values, listed per item

Consider the worked cases shown below.
COC(=O)c1c2c(cc3c1CC1(Cc4cc5c(c(C=O)c4C1)CCC5)C3)CCC2 (stereo not drawn)	> 100 µM
COC(=O)C1=C(CCCCO[Si](C)(C)C(C)(C)C)NC(=O)N2[C@H](CCOCc3ccccc3)CC[C@@H]12	> 100 µM
O=C1Nc2ccccc2/C1=C\c1c(Cl)n(-c2ccccc2)c2ccccc12	> 100 µM
COc1cc(N2C(=O)[C@H](Cl)C2c2ccc(SC)cc2)cc(OC)c1OC (stereo partly drawn)	> 100 µM
CN1CCN(C(=O)c2cn(Cc3cncn3Cc3ccc4c(c3)OCO4)cc2-c2cccc3ccccc23)CC1	53.5 µM

Prompt: # input molecule: CCCCNC(c1ccc(Cl)cc1)C(O)c1ccc(Cl)cc1 (stereo not drawn) ; wanted: its TGI
Response: 5.68 µM

Prompt: Next up: C[C@H]1S[C@@H](c2ccc(Cl)cc2Cl)N(NC(=O)c2ccncc2)C1=O
Response: > 100 µM

Prompt: Next up: O=C(Nc1sc2c(c1C(=O)O)CCCC2)c1ccco1
Response: > 50 µM

Prompt: Next up: C1=CC(=P(c2ccccc2)(c2ccccc2)c2ccccc2)C=C1
Response: 11.3 µM

Prompt: Next up: Cc1cn(CCCCCCOC(=O)NC(CCCNC(N)=O)C(=O)O)c(=O)[nH]c1=O (stereo not drawn)
Response: > 100 µM

----------
System: A498 renal
METHOD SUMMARY: NCI tumour cell line growth inhibition, 48 h
TGI values, listed per item

Consider the worked cases shown below.
CCOP(=O)(/C=C/n1cc(C)c(=O)[nH]c1=O)OCC	> 100 µM
Cc1cn(CCCCCCOC(=O)NC(CCCNC(N)=O)C(=O)O)c(=O)[nH]c1=O (stereo unspecified)	> 100 µM
CC(C)C[C@@H](N)[C@@H](O)C(=O)N[C@H](C(=O)N[C@H](C(=O)N[C@@H](CC(=O)O)C(=O)O)C(C)C)C(C)C	> 20 µM
CC(C)(C)C1CCC2c3c([nH]c4ccccc34)C3C(=O)N(c4ccc([N+](=O)[O-])cc4)C(=O)C3C2C1 (stereo unspecified)	79.4 µM
Clc1ccccc1C(Nc1cnccn1)Nc1cnccn1	> 100 µM

Prompt: Enter reported TGI observed with A498 renal for O=c1c(-c2ccc3c(c2)OCO3)coc2c3c(ccc12)OCO3
Response: 83.1 µM

Prompt: Next up: COc1cc2c(cc1O)C1Cc3ccc(OC)c(O)c3C[N+]1(C)CC2 (stereo unspecified)
Response: > 100 µM

Prompt: Next up: O=P1(N(CCCl)CCCl)Oc2ccc(Cl)cc2C(C(Cl)(Cl)Cl)c2cc(Cl)ccc2O1 (stereo unspecified)
Response: > 100 µM

Prompt: Next up: COC(=O)C1CC(c2ccc(OC)c(OC)c2)OC1=O (mixture of isomers)
Response: > 100 µM

Prompt: Next up: Cc1cccc(C2NC(=O)c3ccccc3N2)c1 (stereo unspecified)
Response: > 73.4 µM

Prompt: Next up: CCOc1ccc(NC(=O)/C(CC(=O)c2c[n+](=O)c3ccccc3n2[O-])=N\OCCCc2ccccc2)cc1
Response: > 100 µM

Prompt: Next up: C/C(=C1\N=C(c2ccccc2)OC1=O)c1ccccc1
Response: > 100 µM

Prompt: Next up: O=CCCCCCOCc1ccccc1
Response: > 100 µM

Prompt: Next up: C=C1CCC[C@@H](C)C(O)[C@@H]2OC(=O)C(=C)[C@@H]2C[C@@H](OC(C)=O)[C@@]2(C)CC[C@@H]1O2 (stereo partly specified)
Response: 19.2 µM
